# System: H929 human cancer cell lines
# assay_protocol: Cellular viability / proliferation (Cell TiterGlo, 72 h)
# Assay type: cell-based
# condition_parameters: Homo sapiens, NCI-H929, 72 h, read-out: GI50 on cellular proliferation of H929 human cancer cell lines, H929 cells, 72 h, Cell TiterGlo, 10% FBS
readout_label: GI50

Consider the following illustrative entries.
[
  {
    "smiles_code": "Cc1cc(OCCCc2c3n(c4c(-c5c(C)nn(C)c5C)c(Cl)ccc24)[C@H](C)CN(c2cccc4cc(-c5nnco5)n(C)c24)C3=O)cc(C)c1Cl",
    "readout_label": "GI50",
    "result": "920 nM"
  },
  {
    "smiles_code": "Cc1cc(N2C[C@@H](C)n3c(c(CCCOc4cc(C)c(Cl)c(C)c4)c4ccc(Cl)c(-c5c(C)nn(C)c5C)c43)C2=O)c2c(c1)cc(C(=O)O)n2Cc1cc(N2CCNCC2)ccn1",
    "readout_label": "GI50",
    "result": "2800 nM"
  }
]

Now let's try a different one.
Exercise: Need GI50, item COc1ccc(N2C[C@@H](C)n3c(c(CCCOc4cc(C)c(Cl)c(C)c4)c4ccc(Cl)c(-c5c(C)nn(C)c5C)c43)C2=O)c2c1cc(C(=O)O)n2C
Solution: < 200 nM

----------
# Tested on: H929 human cancer cell lines
# assay_protocol: Cellular viability / proliferation (Cell TiterGlo, 72 h)
# Assay type: cell-based
# condition_parameters: Homo sapiens, NCI-H929, 72 h, read-out: GI50 on cellular proliferation of H929 human cancer cell lines, H929 cells, 72 h, Cell TiterGlo, 10% FBS
GI50 reference
Numbers only; they are read as µM.

# annotated cases, reported GI50 shown
[
  {
    "compound": "Cc1cc(OCCCc2c3n(c4c(-c5c(C)nn(C)c5C)c(Cl)ccc24)[C@H](C)CN(c2cn(C)c4ccc(-c5ccn(C)n5)cc24)C3=O)cc(C)c1Cl [Example 388]",
    "unit_abbreviation": "µM",
    "GI50": 0.33
  },
  {
    "compound": "COCCn1cc(C(=O)O)c2cc(OCCN(C)C)cc(N3C[C@@H](C)n4c(c(CCCOc5cc(C)c(Cl)c(C)c5)c5ccc(Cl)c(-c6c(C)nn(C)c6C)c54)C3=O)c21 [Example 671]",
    "unit_abbreviation": "µM",
    "GI50": 0.89
  }
]

Now consider a different compound.
Exercise: Given the compound CC[C@@H]1Cn2c(c(CCCOc3cc(C)c(Cl)c(C)c3)c3ccc(Cl)c(-c4c(C)nn(C)c4C)c32)C(=O)N1c1ccc(C(=O)O)c2ncccc12 [Example 19] , what is its reported GI50?
Solution: 4.1

----------
# target_entity: UniProt:Q07820
# assay_protocol: Fluorescence polarization anisotropy (FPA) competition assay, FITC-Bak or FITC-Bim BH3 peptide
# Assay type: binding
# condition_parameters: read-out: Ki for Inhibition of Mcl-1 by FPA assay
readout_label: Ki (nM)
Give just the number in nM; leave the unit off.

# annotated cases, reported Ki shown
[
  {
    "smiles_code": "Cc1cc(OCCCc2c3n(c4c(-c5c(C)nn(C)c5C)c(Cl)ccc24)CCCN(c2cccc4c(-c5nn[nH]n5)cn(C)c24)C3=O)cc(C)c1Cl",
    "target_entity": "UniProt:Q07820",
    "unit_abbreviation": "nM",
    "numeric_result": 2.2
  },
  {
    "smiles_code": "Cc1cc(OCCCc2c3n(c4c(-c5c(C)nc(CN6CCNCC6)nc5C)c(Cl)ccc24)[C@H](C)CN(c2cn(C)c4ccc(C(=O)O)cc24)C3=O)cc(C)c1Cl",
    "target_entity": "UniProt:Q07820",
    "unit_abbreviation": "nM",
    "numeric_result": 7
  }
]

// next entry
Exercise: Which value of Ki has been reported for Cc1cc(OCCCc2c3n(c4c(-c5c(C)nn(C)c5C)c(Cl)ccc24)CCCN(c2cc(C(=O)O)cc4nn(CCN(C)C)cc24)C3=O)cc(C)c1Cl in the records?
Solution: 1.8

----------
# key: entry, value: pKi
# target_entity: Mcl-1 (Homo sapiens (Human), UniProt Q07820)
# Sequence (Q07820 172-327): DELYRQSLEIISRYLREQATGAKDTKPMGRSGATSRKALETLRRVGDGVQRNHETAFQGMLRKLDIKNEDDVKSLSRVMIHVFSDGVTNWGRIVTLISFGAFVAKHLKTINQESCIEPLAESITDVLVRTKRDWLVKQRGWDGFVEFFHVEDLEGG
# assay_protocol: Fluorescence polarization anisotropy (FPA) competition assay, FITC-Bak or FITC-Bim BH3 peptide
# Assay type: binding
# condition_parameters: read-out: Ki for Inhibition of Mcl-1 by FPA assay
// returns pKi (minus log10 of molar concentration), number only

[
  {
    "compound": "Cc1cc(OCCCc2c3n(c4c(-c5c(C)nn(C)c5C)c(Cl)ccc24)[C@H](C)CN(c2cccc4cc(C(N)=O)n(C)c24)C3=O)cc(C)c1Cl [Example 377]",
    "pKi": 8.31
  }
]

Exercise: Return reported pKi; argument: Cc1cc(OCCCc2c3n(c4c(-c5c(C)nn(C)c5C)c(Cl)ccc24)[C@H](C)CN(c2cn(C)c4ccc(-c5ncn(CC6COC6)n5)cc24)C3=O)cc(C)c1Cl [Example 475]
Solution: 8.15

Exercise: For Cc1cc(OCCCc2c3n(c4c(-c5c(C)nn(C)c5C)c(Cl)ccc24)[C@H](C)CN(c2cccc4c2cc(C#N)n4C)C3=O)cc(C)c1Cl [Example 301] , what is its reported pKi?
Solution: 8.55

----------
# target_entity: Mcl-1 (Homo sapiens (Human))
# assay_protocol: Fluorescence polarization anisotropy (FPA) competition assay, FITC-Bak or FITC-Bim BH3 peptide
# Type: binding
# condition_parameters: read-out: Ki for Inhibition of Mcl-1 by FPA assay
pKi values by entry
Entry type: numeric. Quantity: pKi, the -log10 of concentration in molar units.

Exercise: Look up pKi for this compound: Cc1cc(OCCCc2c(C(=O)N(C)c3cccc(C(=O)O)c3)n(CCN3CCOCC3)c3c(-c4c(C)nn(C)c4C)c(Cl)ccc23)cc(C)c1Cl [Example 730]
Solution: 7.70

Exercise: Give its pKi value. Item: Cc1cc(CCCCc2c(C(=O)N3CCN(c4ccc(C(=O)O)nc4)CC3)n(Cc3cccnc3)c3c(-c4c(C)nn(C)c4C)c(Cl)ccc23)cc(C)c1Cl [Example 737]
Solution: 6.85

Exercise: # query: pKi of entry Cc1cc(OCCCc2c(C(=O)N3CCN(c4cccc(C(=O)O)c4)CC3)[nH]c3c(-c4c(C)nn(C)c4C)c(Cl)ccc23)cc(C)c1Cl [Example 732]
Solution: 7.42

----------
Quick list: pKi per entry.
# target_entity: Mcl-1 (Homo sapiens (Human))
# assay_protocol: Fluorescence polarization anisotropy (FPA) competition assay, FITC-Bak or FITC-Bim BH3 peptide
# Format: binding
# condition_parameters: read-out: Ki for Inhibition of Mcl-1 by FPA assay
pKi: −log10 of the molar value.

Below are worked cases with known answers.
[
  {
    "smiles_code": "Cc1cc(OCCCc2c3n(c4c(-c5c(C)nn(C)c5C)c(Cl)ccc24)[C@H](C)CN(c2cccc4cc(C(=O)O)oc24)C3=O)cc(C)c1Cl",
    "target_entity": "Mcl-1 (Homo sapiens (Human))",
    "pKi": "> 9.00"
  },
  {
    "smiles_code": "Cc1cc(OCCCc2c3n(c4c(-c5c(C)ncnc5C)c(Cl)ccc24)CCCN(c2cccc4c(C(=O)O)cn(C)c24)C3=O)cc(C)c1Cl",
    "target_entity": "Mcl-1 (Homo sapiens (Human))",
    "pKi": "> 9.00"
  }
]

With those in mind, consider the next compound.
Exercise: Name the recorded pKi for Cc1cc(OCCCc2c3n(c4c(-c5c(C)nn(C)c5C)c(Cl)ccc24)[C@H](C)CN(c2cccc4c(C(=O)O)cn(Cc5ccccn5)c24)C3=O)cc(C)c1Cl .
Solution: > 9.00

----------
// pKi lookup, one value per entry
# target_entity: Mcl-1 (Homo sapiens (Human), UniProt Q07820)
# assay_protocol: TR-FRET binding assay, FITC-Bak peptide and MBP-tagged Mcl-1
# condition_parameters: read-out: Ki for Inhibition of Mcl-1 by TR-FRET assay
pKi: −log10 of the molar value.

See these solved cases before continuing.
[
  {
    "compound": "Cc1cc(OCCCc2c3n(c4c(-c5c(C)nn(C)c5C)c(Cl)ccc24)[C@H](C)CN(c2cc(COCC4COC4)cc4cc(C(=O)O)n(C)c24)C3=O)cc(C)c1Cl",
    "pKi": "> 9.70"
  },
  {
    "compound": "Cc1cc(OCCCc2c3n(c4c(-c5c(C)nn(C)c5C)c(Cl)ccc24)[C@H](C)CN(c2cccc4c(C(=O)O)c5n(c24)CCN(C)C5=O)C3=O)cc(C)c1Cl",
    "pKi": 9.01
  },
  {
    "compound": "C=C(C)c1ccnc(Cn2c(C(=O)O)cc3cc(C)cc(N4C[C@@H](C)n5c(c(CCCOc6cc(C)c(Cl)c(C)c6)c6ccc(Cl)c(-c7c(C)nn(C)c7C)c65)C4=O)c32)c1",
    "pKi": "> 9.70"
  }
]

Exercise: Item under review: COCCn1cc(N2C[C@@H](C)n3c(c(CCCOc4cc(C)c(Cl)c(C)c4)c4ccc(Cl)c(-c5c(C)nn(C)c5C)c43)C2=O)c2cc(-c3ncn(CC4CC4)n3)ccc21 . Reported pKi?
Solution: 8.77

Exercise: What measured pKi goes with Cc1cc(OCCCc2c3n(c4c(-c5c(C)nn(C)c5C)c(Cl)ccc24)[C@H](C)CN(c2ccc4ccc(C(=O)O)nc4c2)C3=O)cc(C)c1Cl ?
Solution: 8.14

Exercise: I have this compound here, Cc1cc(OCCCc2c3n(c4c(-c5c(C)nn(C)c5C)c(Cl)ccc24)[C@H](C)CN(c2cc(C(=O)O)cc4cc(C(=O)O)n(C)c24)C3=O)cc(C)c1Cl , and I need its recorded pKi.
Solution: > 9.70

Exercise: Sample COCCOc1cc(N2C[C@@H](C)n3c(c(CCCOc4cc(C)c(Cl)c(C)c4)c4ccc(Cl)c(-c5c(C)nn(C)c5C)c43)C2=O)c2c(c1)cc(C(=O)O)n2C [Example 711] — what was its pKi?
Solution: > 9.70

Exercise: Which pKi value belongs to Cc1cc(OCCCc2c3n(c4c(-c5c(C)nn(C)c5C)c(Cl)ccc24)[C@H](C)CN(c2cc(CN4CCN(C)C(=O)C4)cc4cc(C(=O)O)n(C)c24)C3=O)cc(C)c1Cl ?
Solution: > 9.70

Exercise: Given the entry COCCCn1c(C(=O)O)cc2cc(C)cc(N3C[C@@H](C)n4c(c(CCCOc5cc(C)c(Cl)c(C)c5)c5ccc(Cl)c(-c6c(C)nn(C)c6C)c54)C3=O)c21 , report its measured pKi.
Solution: > 9.70

Exercise: pKi lookup needed for COc1ccc(N2C[C@@H](C)n3c(c(CCCOc4cc(C)c(Cl)c(C)c4)c4ccc(Cl)c(-c5c(C)nc(CN(C)C)nc5C)c43)C2=O)c2c1cc(C(=O)O)n2Cc1ccccn1 , thanks.
Solution: > 9.70

Exercise: Reported pKi for Cc1cc(OCCCc2c3n(c4c(-c5c(C)nn(C)c5C)c(Cl)ccc24)[C@H](C)CN(c2cn(CC(=O)N(C)C)c4ccc(-c5ncn(C)n5)cc24)C3=O)cc(C)c1Cl : what is it?
Solution: 9.28
